- target-desc: human ether-à-go-go-related gene (hERG) potassium channel (human);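 further: peak tail current of the secondary pulse compared with the same well before compound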
- Sequence (Q12809 whole entry, looked up): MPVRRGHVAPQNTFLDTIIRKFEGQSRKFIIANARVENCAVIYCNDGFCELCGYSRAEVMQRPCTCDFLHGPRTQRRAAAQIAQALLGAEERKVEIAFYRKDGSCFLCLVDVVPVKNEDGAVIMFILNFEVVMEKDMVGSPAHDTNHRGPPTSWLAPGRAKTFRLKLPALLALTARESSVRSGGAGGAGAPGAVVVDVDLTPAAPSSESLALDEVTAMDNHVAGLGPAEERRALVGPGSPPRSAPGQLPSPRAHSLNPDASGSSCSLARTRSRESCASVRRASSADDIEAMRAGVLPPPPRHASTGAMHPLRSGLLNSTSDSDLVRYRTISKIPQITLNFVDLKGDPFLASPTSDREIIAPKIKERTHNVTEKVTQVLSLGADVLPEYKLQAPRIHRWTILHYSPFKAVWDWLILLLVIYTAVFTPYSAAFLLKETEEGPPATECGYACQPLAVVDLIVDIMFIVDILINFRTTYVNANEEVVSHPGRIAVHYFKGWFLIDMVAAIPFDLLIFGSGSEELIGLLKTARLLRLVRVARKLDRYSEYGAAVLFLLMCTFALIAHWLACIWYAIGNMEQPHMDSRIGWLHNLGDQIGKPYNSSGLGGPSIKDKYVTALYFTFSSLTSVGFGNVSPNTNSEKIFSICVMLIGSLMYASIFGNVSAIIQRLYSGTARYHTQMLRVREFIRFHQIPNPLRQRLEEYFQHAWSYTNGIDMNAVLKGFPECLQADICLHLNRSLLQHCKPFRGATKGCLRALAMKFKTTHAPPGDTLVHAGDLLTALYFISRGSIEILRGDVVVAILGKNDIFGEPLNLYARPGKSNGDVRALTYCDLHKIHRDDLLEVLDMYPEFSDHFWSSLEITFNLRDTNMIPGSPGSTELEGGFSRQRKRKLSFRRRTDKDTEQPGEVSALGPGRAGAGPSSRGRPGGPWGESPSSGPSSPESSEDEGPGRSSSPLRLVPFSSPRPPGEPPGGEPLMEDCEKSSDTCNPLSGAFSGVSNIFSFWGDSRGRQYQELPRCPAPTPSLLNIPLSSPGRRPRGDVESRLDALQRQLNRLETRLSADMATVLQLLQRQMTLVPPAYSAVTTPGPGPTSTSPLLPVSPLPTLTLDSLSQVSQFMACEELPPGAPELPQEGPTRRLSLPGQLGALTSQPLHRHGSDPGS
- assay-protocol: primary screen, population patch clamp on CHO cells stably expressing hERG; higher = less effect of the substance
Out of some 310,000 compounds screened, about 14,000 (4.5%) showed an effect of 50% or more. The effect is printed as a negative number. Only a selection was taken, and strong results are over-represented in it overall.
parameter: hERG current change (%, negative = inhibition) at 10uM
A complete answer gives the number and then names the unit.

The cases that follow already have their hERG current change (%, negative = inhibition) at 10uM on record.
COC(=O)[C@H]1C[C@@H]1[C@H](NC(=O)c1cc(C)on1)c1ccccc1 = 10.3%
Cc1c(CCOC(=O)c2ccccc2)sc[n+]1CC(=O)c1ccc(Br)cc1.[Br-] = -77%
CCN(CC)CCP(=O)(c1ccccc1)c1ccccc1 = -15.2%
Cc1c(CCOC(=O)c2cccc([N+](=O)[O-])c2)sc[n+]1CC(=O)c1ccccc1.[Br-] = -51.1%
Cc1c(CCOC(=O)c2cc([N+](=O)[O-])cc([N+](=O)[O-])c2)sc[n+]1CC(=O)c1ccccc1.[Cl-] = 5.96%
CC(C)Cn1c(N)c(C(=O)COC(=O)C2=COCCO2)c(=O)n(C)c1=O = 14.1%
COc1ccc(C2=NNC(c3ccco3)=Nc3ccc(F)cc32)cc1 = -10.8%
Cc1c(CCOC(=O)c2cc([N+](=O)[O-])cc([N+](=O)[O-])c2)sc[n+]1CCCCS(=O)(=O)[O-] = 23.4%
Cc1c(CCOC(=O)C23CC4CC(CC(C4)C2)C3)sc[n+]1Cc1ccccc1.[Cl-] = -8.89%
CC1Cc2ccccc2N1CC(=O)NC(c1ccccc1)c1ccccc1.O=C(O)C(=O)O (stereo not drawn) = 19.1%

Quick one: hERG current change (%, negative = inhibition) at 10uM for Cc1c(CCOC(=O)c2ccccc2)sc[n+]1Cc1ccccc1.[Cl-] ? -32.7%

Quick one: hERG current change (%, negative = inhibition) at 10uM for O=C(CN1CCCC1)NC(c1ccccc1)c1ccccc1.O=C(O)C(=O)O ? -34.7%

Quick one: hERG current change (%, negative = inhibition) at 10uM for CC1CC(C)CN(CC(=O)NC(c2ccccc2)c2ccccc2)C1.O=C(O)C(=O)O (stereo not drawn) ? -68.4%
